src = patent US8961937B2

- STUDY_SYSTEM: Aβ40 aggregates (Homo sapiens)
- Construct: agglomerated Aβ40 peptide (10 μM, 35° C., agglomerated in PBS buffer for 3 days.)
- TEST_METHOD_NOTES: In vitro fluorescence measurement before and after mixing with agglomerated Aβ40 peptide
- Type: binding
- REPORTED_CONDITIONS: fluorescence emission intensity at λem, 10 μM compound and 10 μM Aβ40 aggregates
OBSERVATION_TYPE: Fold Increase (FAβ/F0)

{"MOLECULE_SMILES": "COc1cc(OC)c(OC)cc1/C=C/n1ncc(Cl)c(Cl)c1=O", "STUDY_SYSTEM": "Aβ40 aggregates (Homo sapiens)", "OBSERVATION_TYPE": "Fold Increase (FAβ/F0)", "READOUT_NUMBER": 3.95}
{"MOLECULE_SMILES": "O=c1c(Cl)c(Cl)cnn1/C=C/c1cccc([N+](=O)[O-])c1", "STUDY_SYSTEM": "Aβ40 aggregates (Homo sapiens)", "OBSERVATION_TYPE": "Fold Increase (FAβ/F0)", "READOUT_NUMBER": 2.12}
{"MOLECULE_SMILES": "O=c1c(Cl)c(Cl)cnn1/C=C/c1ccc(/C=C/c2ccccc2)cc1", "STUDY_SYSTEM": "Aβ40 aggregates (Homo sapiens)", "OBSERVATION_TYPE": "Fold Increase (FAβ/F0)", "READOUT_NUMBER": 2.04}
{"MOLECULE_SMILES": "O=c1c(Cl)c(Cl)cnn1/C=C/c1ccccc1[N+](=O)[O-]", "STUDY_SYSTEM": "Aβ40 aggregates (Homo sapiens)", "OBSERVATION_TYPE": "Fold Increase (FAβ/F0)", "READOUT_NUMBER": 4.12}

P = COc1cccc(/C=C/n2ncc(Cl)c(Cl)c2=O)c1OC
Q = COC(=O)c1ccc(/C=C/n2ncc(Cl)c(Cl)c2=O)cc1
R = COc1cc(/C=C/n2ncc(Cl)c(Cl)c2=O)cc(OC)c1OC
S = COc1cccc(OC)c1/C=C/n1ncc(Cl)c(Cl)c1=O
query: Sort the 4 compounds by Fold Increase (FAβ/F0); largest first, smallest last. Answer by writing out the labels in the requested order.
result: R, P, S, Q
(R: 26.12, P: 15.35, S: 4.53, Q: 2.07)

---

- STUDY_SYSTEM: Aβ40 aggregates (Homo sapiens, UniProt P05067)
- Construct: agglomerated Aβ40 peptide (10 μM, 35° C., agglomerated in PBS buffer for 3 days.)
- Sequence (P05067 672-711 limits assumed): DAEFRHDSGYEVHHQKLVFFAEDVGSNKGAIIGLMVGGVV
- TEST_METHOD_NOTES: In vitro fluorescence measurement before and after mixing with agglomerated Aβ40 peptide
- Format: binding
- REPORTED_CONDITIONS: emission wavelength; 10 μM in PBS
OBSERVATION_TYPE: λem (nm)

{"MOLECULE": "COc1cccc(/C=C/n2ncc(Cl)c(Cl)c2=O)c1 [Compound 17]", "OBSERVATION_TYPE": "λem", "UNITS_SYMBOL": "nm", "READOUT_NUMBER": 492}
{"MOLECULE": "COc1ccc(/C=C/n2ncc(Cl)c(Cl)c2=O)c(OC)c1OC [Compound 25]", "OBSERVATION_TYPE": "λem", "UNITS_SYMBOL": "nm", "READOUT_NUMBER": 536}
{"MOLECULE": "CN(C)c1ccc(/C=C/n2ncc(Cl)c(Cl)c2=O)cc1 [Compound 14]", "OBSERVATION_TYPE": "λem", "UNITS_SYMBOL": "nm", "READOUT_NUMBER": 636}
{"MOLECULE": "COc1cc(/C=C/n2ncc(Cl)c(Cl)c2=O)cc(OC)c1 [Compound 24]", "OBSERVATION_TYPE": "λem", "UNITS_SYMBOL": "nm", "READOUT_NUMBER": 492}
{"MOLECULE": "O=c1c(Cl)c(Cl)cnn1/C=C/c1ccccc1 [Compound 1]", "OBSERVATION_TYPE": "λem", "UNITS_SYMBOL": "nm", "READOUT_NUMBER": 496}
{"MOLECULE": "COc1ccc(/C=C/n2ncc(Cl)c(Cl)c2=O)cc1 [Compound 18]", "OBSERVATION_TYPE": "λem", "UNITS_SYMBOL": "nm", "READOUT_NUMBER": 532}
{"MOLECULE": "O=c1c(Cl)c(Cl)cnn1/C=C/c1ccc(-c2ccccc2)cc1 [Compound 12]", "OBSERVATION_TYPE": "λem", "UNITS_SYMBOL": "nm", "READOUT_NUMBER": 514}
{"MOLECULE": "COc1cc(OC)c(OC)cc1/C=C/n1ncc(Cl)c(Cl)c1=O [Compound 26]", "OBSERVATION_TYPE": "λem", "UNITS_SYMBOL": "nm", "READOUT_NUMBER": 542}
